# PROTOCOL_DESCRIPTION: Timed organ biodistribution of [^64Cu]Cu-DOTATATE by ex vivo gamma counting
# Type: in vivo, mice
# COND: mouse, bladder, intravenous, 1.85 MBq, total radioactivity; female C57BL/6 mice, 1 min after injection, median (IQR), N=3-7; read-out: Tissue radioactivity, bladder
READOUT_TYPE: tissue uptake at 1 min (%ID/g)
The reply should be a number in %ID/g, with the unit left off.

Query: Suppose we examine the compound C[C@@H](O)[C@H](NC(=O)[C@@H]1CSSC[C@H](NC(=O)[C@@H](Cc2ccccc2)NC(=O)CN2CCN(CC(=O)O)CCN(CC(=O)O)CCN(CC(=O)O)CC2)C(=O)N[C@@H](Cc2ccc(O)cc2)C(=O)N[C@H](Cc2c[nH]c3ccccc23)C(=O)N[C@@H](CCCCN)C(=O)N[C@@H]([C@@H](C)O)C(=O)N1)C(=O)O [[^64Cu]Cu-DOTATATE, metal not drawn] ; what tissue uptake at 1 min value has been reported?
Reply: 4.6

Data origin, for the record: paper PMC9007951
